System: ACHN renal
Experiment: NCI tumour cell line growth inhibition, 48 h
measurement type: TGI

molecule	measurement type	value measured
O=C(N/N=C\c1ccc([N+](=O)[O-])cc1)Nc1ccc2ccccc2c1	TGI	> 100 µM
C[C@]12CC/C(=N\OCCN3CCCC3)C=C1CCC1C2CC[C@@]2(C)C1CC[C@]2(C)O (stereo partly specified)	TGI	50.3 µM
CC(=O)/C=C1/C(=O)C(CC(C)C)=C1CC(C)C	TGI	> 100 µM
COc1ccc(C2=NC(CO)[C@H](c3ccccc3)O2)cc1OC (stereo partly specified)	TGI	> 100 µM
CCCCCCCCCCCCCCCCNc1nc(=O)n(C2CC(O)C(COP(=O)(O)OC3CC(n4cc(F)c(=O)[nH]c4=O)OC3CO)O2)cc1F (stereo unspecified)	TGI	> 100 µM
O=C(Nc1cccc2[nH]c(C(F)(F)F)nc12)c1ccc(Br)cc1F	TGI	11.1 µM
O=C1Nc2ccccc2C1(O)Cc1ccccn1 (stereo unspecified)	TGI	> 100 µM
O=c1c2cc([N+](=O)[O-])ccc2[nH]n1Cc1ccccc1Cl	TGI	> 100 µM
N#Cc1ccc(N=NN2CCCC2)cc1	TGI	> 100 µM
O=C(N/N=C/c1coc2ccc(Cl)cc2c1=O)c1cc(O)c(O)c(O)c1	TGI	52.5 µM
Nc1ncnc2c1ncn2C1OC(F)(COS(N)(=O)=O)C(O)C1O (stereo unspecified)	TGI	> 100 µM
O=C1C=C(c2ccccc2)NC1(c1ccccc1)c1cc(-c2ccccc2)[nH]c1-c1ccccc1 (stereo unspecified)	TGI	> 100 µM
COc1ccc(-n2c(C)nc3ccc(NC4OCC(OC(C)=O)C(OC(C)=O)C4OC(C)=O)cc3c2=O)cc1 (stereo unspecified)	TGI	> 100 µM
NC(=O)c1c(NC(=O)c2ccc(C(F)(F)F)cc2Cl)sc2c1CCC(=O)C2	TGI	1.04 µM
C=CCNC(=S)NC=C(C(N)=O)C(N)=O	TGI	> 100 µM
Cc1cc(O)c(C(O)c2ccccn2)cc1O (stereo unspecified)	TGI	18.4 µM
O=C(Nc1ccc(Br)cc1)c1cc(Br)ccc1O	TGI	> 64 µM
COc1ccc(C(=O)c2[nH]c(Nc3cc(C)ccn3)c(C(=S)Nc3ccccc3)c2N)cc1	TGI	97.4 µM
COc1cc(/C=C2\CC3C4CC=C5C[C@@H](N6CCCC6)CC[C@]5(C)C4CC[C@]3(C)[C@H]2OC(C)=O)ccc1OCCCn1ccnc1 (stereo partly specified)	TGI	1.09 µM
CC(=O)OC1CCC2(C)C(=CCC3C2CCC2(C)C3CC3OC4(CCC(C)CN4)C(C)C32)C1 (stereo unspecified)	TGI	> 100 µM
CCCCCCCCC#CCCCCCCC(F)C(=O)O (stereo unspecified)	TGI	> 100 µM

* * *

Tested on: UO-31 renal
Experiment: NCI tumour cell line growth inhibition, 48 h

molecule	target desc	GI50
O=C1c2c[n+](Cc3ccccc3)ccc2-c2nc3ccccc3c3ccnc1c23	UO-31 renal	0.756 µM
Cc1ccc(-c2csc3ncnc(Nc4cccc(O)c4)c23)cc1	UO-31 renal	35.5 µM
O=C(NCCc1nccs1)c1cnc2c(S)cccc2c1	UO-31 renal	3.26 µM
O=C1CC[C@@H]2[C@H]3CCC(=O)c4c3c(c3cccc(O)c3c4O)O[C@@]23C(=O)c2cccc(O)c2C(O)=C13	UO-31 renal	> 100 µM
COc1ccc(C(=O)c2no[n+]([O-])c2C(=O)c2ccc(OC)cc2)cc1	UO-31 renal	0.588 µM
CC(=O)OC1C(C)OC(Oc2c(-c3ccc(O)cc3)oc3cc(O)cc(O)c3c2=O)C(O)C1OC(C)=O (stereo unspecified)	UO-31 renal	39.3 µM

* * *

Test system: SK-MEL-2 melanoma
Assay: NCI tumour cell line growth inhibition, 48 h
measurement type: TGI

structure as smiles	target desc	value measured
CCOC(=O)N1C/C(=C\c2ccc(N(C)C)cc2)C(=O)/C(=C/c2ccc(N(C)C)cc2)C1	SK-MEL-2 melanoma	> 100 µM
COC(=O)/C=C1\C(=O)Nc2ccc(Br)cc21	SK-MEL-2 melanoma	1.77 µM
NC(=O)c1c(-c2ccccc2)c(-c2ccccc2)cc2c(=O)c3ccccc3[nH]c12	SK-MEL-2 melanoma	45.1 µM
CCOC(=O)c1nc2sc(Cl)cn2c1/C=N/N=C(N)N	SK-MEL-2 melanoma	> 87.2 µM
COc1cc(Br)c(/C=N/N=C(\N)NO)cc1OC	SK-MEL-2 melanoma	> 100 µM
Nc1nc(N)c2ncn(Cc3ccccc3CO)c2n1	SK-MEL-2 melanoma	> 100 µM

* * *

Tested on: MDA-N
Assay: NCI tumour cell line growth inhibition, 48 h

compound	TGI
COc1ccc(/C=N/n2c(Cc3ccccc3)n[nH]c2=O)c(OC)c1	> 100 µM
CC1(c2cccc(C(F)(F)F)c2)CC(c2cccc(C(F)(F)F)c2)=C(C#N)C(=C(C#N)C#N)N1 (stereo not given)	33.6 µM
CC(=O)OC1CCC2(C)C(=CCC3C2CCC2(C)C3CC3OC4(CCC(C)CN4)C(C)C32)C1 (stereo not given)	> 100 µM
CCc1cn(C2CC(CO)C(CO)S2)c(=O)[nH]c1=O (stereo not given)	> 100 µM
O=C1/C(=C/c2ccccc2)CN(C(=O)/C=C/c2ccccc2)C/C1=C\c1ccccc1	3.43 µM
Cc1ccc2c(n1)C(=O)c1cc(C)c(C)cc1C2=O	> 100 µM
COC(=O)/C=C1/OC(c2ccccc2)=C(Br)C1=O	> 100 µM
NC(=S)N/N=C1\CCc2ccccc2C1	> 100 µM
Fc1nc(-c2c3ccccc3c3sc4ccccc4n23)nc(N2CCOCCOCCOCCOCC2)n1	> 100 µM
COc1ccccc1OC/C(N=Cc1cccnc1)=N/NC(=O)c1ccncc1	> 100 µM

* * *

Test system: EKVX NSCLC
Assay: NCI tumour cell line growth inhibition, 48 h
// values below are reported TGI
measurement type: TGI

compound	value measured
O=C1/C(=C/c2ccc([N+](=O)[O-])cc2)Oc2cc(O)ccc21	96.3 µM
Cc1ccc(C(=O)c2[nH]c(NCc3ccccc3)c(C(=S)Nc3ccccc3)c2N)cc1	26.5 µM
COc1cccc(-c2nc(N)c(C#N)c3c2CCS(=O)(=O)c2ccc(C)cc2-3)c1	> 100 µM
CC(=O)/C=C1/C(=O)C(CC(C)C)=C1CC(C)C	> 100 µM
CCOP(=O)(OCC)/C(C#N)=C/c1cccn1C	> 100 µM
O=S(=O)(c1ccccc1)C1(C2(S(=O)(=O)c3ccccc3)CCN=N2)CCN=N1 (stereo unspecified)	> 100 µM
CCOC(=O)N1C/C(=C\c2ccc(N(C)C)cc2)C(=O)/C(=C/c2ccc(N(C)C)cc2)C1	> 100 µM
Nc1ncnc2occ(-c3ccc(NC(=O)Nc4cccc(C(F)(F)F)c4)cc3)c12	14.5 µM
CCN(CC)CCNc1ccc2nc(C)n3c4ccc(OC)cc4c(=O)c1c23	13.9 µM
NC(N)=NS(=O)(=O)c1ccc(NCc2cccc3c(=O)c4ccc(Cl)cc4oc23)cc1	> 21.9 µM
COc1c(O)ccc(/C=N/NC(=S)NCOCCOC(C)=O)c1OC	> 100 µM
O=C1/C(=C/c2ccccc2)CN(C(=O)/C=C/c2ccccc2)C/C1=C\c1ccccc1	50.1 µM
COC(=O)/C=C1/OC(c2ccccc2)=C(Br)C1=O	> 100 µM
CC(=O)OC1CCC2(C)C(=CCC3C2CCC2(C)C3CC3OC4(CCC(C)CN4)C(C)C32)C1 (stereo unspecified)	> 100 µM
O=S(=O)([O-])c1ccc(C=Nc2ccccc2)c([O-])c1.O=S(=O)([O-])c1ccc(C=Nc2ccccc2)c([O-])c1.[Co+2]	> 100 µM
N#C/C(=C\c1ccccn1)c1nc2ccccc2o1	> 100 µM
CC(=O)NC1=C(NCCO)C(=O)c2ccccc2C1=O	> 50 µM
CN(C)Cc1c[nH]c2nc[nH]c(=O)c12	> 100 µM
NNC(=S)N/N=C(\c1nc2ccc(Cl)cc2[nH]c1=O)C(O)c1cccc([N+](=O)[O-])c1 (stereo unspecified)	> 100 µM
O=c1oc2cc(O)ccc2cc1-c1nc2ccccc2o1	> 100 µM
COc1cc(Br)c(/C=N/N=C(\N)NO)cc1OC	> 100 µM

* * *

// values below are reported TGI
Tested on: NCI-H23 lung
Experiment: NCI tumour cell line growth inhibition, 48 h
measurement type: TGI

compound	target desc	value measured
CCOC(=O)CCC(NC(=O)c1ccc(Oc2nc3cc(N)cc(N)c3nc2-c2ccccc2)cc1)C(=O)OCC (centres undefined)	NCI-H23 lung	30.4 µM
O=C1CC[C@@H]2[C@H]3CCC(=O)c4c3c(c3cccc(O)c3c4O)O[C@@]23C(=O)c2cccc(O)c2C(O)=C13	NCI-H23 lung	> 100 µM
Cc1c2cnccc2c(C)c2c1c1ccccc1n2CCCCCCCl	NCI-H23 lung	> 50 µM
COC(=O)c1ccc(C)cc1C1CN=NC12Cc1c(C)cccc1C2=O (centres undefined)	NCI-H23 lung	> 100 µM

Data provenance is PubChem BioAssay (NCI).
